# Test system: BT474
# TEST_SUMMARY: Cell viability, olaparib alone or with PHI-101 (Example 3)
# Assay type: cell-based
# ASSAY_SETUP: Homo sapiens, BT-474, medium instead of PHI-101, 72 hours
ASSAY_ENDPOINT: IC50 (µM)
Express your answer in µM, writing the number without its unit.

-- ask Report IC50, nothing else, for this compound: O=C(c1cc(Cc2n[nH]c(=O)c3ccccc23)ccc1F)N1CCN(C(=O)C2CC2)CC1 [olaparib]
-- reply 74.6

----------
# Tested on: MCF7
# TEST_SUMMARY: Cell viability, PHI-101 alone or with cisplatin (Example 2)
# Assay type: cell-based
# ASSAY_SETUP: Homo sapiens, medium instead of cisplatin, 72 hours
ASSAY_ENDPOINT: IC50 (µM)
Kindly answer with a numeric value in µM, unit omitted.

-- ask Please report IC50 for the following molecule: `NC(=O)Nc1cc(C#Cc2cccc(F)c2)sc1C(=O)N[C@H]1CCCNC1`
-- reply 3.23
